# METHOD DESCRIPTION: qHTS Assay for Rab9 Promoter Activators: Hit Validation Using Renilla Luciferase Read-Out
# RUN PARAMETERS: Huh7 NPC1 promoter Renilla luciferase reporter, 24 h; series mostly up to 76.9 µM
# Excerpt: Niemann Pick Type C (NPC) is a rare neurodegenerative lipidosis that is characterized by lipid storage in the endosomal/lysosomal system. Treatment modalities for this devastating disease are currently non-existent due to the severe obstacles associated with accessing the central nervous system with proteins or genes. […] This assay presents data on the validation of hits from the primary screen, which used a firefly luciferase read-out. […]
Inconclusive results are not listed. Active and inactive are the calls of the source. Calls come from the whole dose curve; as a rule, active = well fitted curve in the direction sought with a large enough effect; inconclusive = small, poorly fitted or top-dose-only effect, or another doubt; inactive = no such curve, though single readings can be large or run the other way.
EXPERIMENTAL ENDPOINT: outcome

smiles_text=O=C(CSc1nnc(-c2ccccn2)o1)Nc1ccccc1Cl experimental_endpoint=outcome meas_value=inactive
smiles_text=O=C(CCCn1c(=O)oc2ccccc21)N1CCN(c2ccccn2)CC1 experimental_endpoint=outcome meas_value=inactive
smiles_text=O=C(O)C1=CC[C@@H](c2ccc(Cl)cc2)N(S(=O)(=O)c2ccc(Cl)cc2)[C@H]1c1ccccc1 experimental_endpoint=outcome meas_value=inactive
smiles_text=CCOC(=O)c1cc2sccc2n1CC(=O)N1CCCc2ccccc21 experimental_endpoint=outcome meas_value=inactive
smiles_text=O=C(c1cc2cc([N+](=O)[O-])ccc2oc1=O)n1cccn1 experimental_endpoint=outcome meas_value=inactive

Q: Indicate its recorded outcome; the compound in question is COC(=O)c1ccccc1NC(=O)c1ccc(-c2ccc(Br)cc2)o1
Ans: inactive

Q: Indicate its recorded outcome; the compound in question is Cc1ccc(C)c(Nc2cc(C)nc3ncnn23)c1
Ans: inactive

Q: Indicate its recorded outcome; the compound in question is Nc1nc(SCCO)[nH]c(=O)c1NC(=O)c1ccco1
Ans: inactive

Q: Indicate its recorded outcome; the compound in question is COc1ccc(NC(=O)Nc2ccc(Cc3ccncc3)cc2)cc1OC
Ans: inactive

Q: Indicate its recorded outcome; the compound in question is COc1ccccc1NC(=S)NCc1ccc(Cl)cc1
Ans: inactive

Q: Indicate its recorded outcome; the compound in question is O=[N+]([O-])c1cnccc1Nc1ccc(F)cc1
Ans: inactive

###

# METHOD DESCRIPTION: qHTS Assay for Rab9 Promoter Activators: Hit Validation Using Renilla Luciferase Read-Out
# RUN PARAMETERS: Huh7 NPC1 promoter Renilla luciferase reporter, 24 h; series mostly up to 76.9 µM
Results filed as inconclusive are left out. Activity calls are given as the source filed them. Calls follow the shape of the dose curve; as a rule, active = well fitted curve in the direction sought with a large enough effect; inconclusive = small, poorly fitted or top-dose-only effect, or another doubt; inactive = no such curve, though single readings can be large or run the other way.
EXPERIMENTAL ENDPOINT: outcome

molecule=CCC(=O)NC(=S)Nc1ccc(N2CCOCC2)cc1 meas_value=inactive
molecule="O=C(NCCc1c[nH]c2ccccc12)C(=O)NCC(c1ccco1)N1CCN(c2ccccc2F)CC1 (configuration not stated)" meas_value=inactive
molecule=Brc1ccccc1-c1nnc(CSc2nnc3sc4ccccc4n23)o1 meas_value=inactive
molecule=COc1ccc(/C=C\c2onc(C)c2S(=O)(=O)N2CCC(C(=O)NCCC(C)C)CC2)cc1 meas_value=inactive

Q: Indicate its recorded outcome; the molecule in question is CN(C)C(=O)[C@H]1C[C@H]1[C@@H](O)[C@H](CO)NC(=O)[C@H](COCc1ccccc1)NC(=O)OC(C)(C)C
Ans: inactive

###

# METHOD DESCRIPTION: qHTS Assay for Rab9 Promoter Activators: Hit Validation Using Renilla Luciferase Read-Out
# RUN PARAMETERS: Huh7 NPC1 promoter Renilla luciferase reporter, 24 h; series mostly up to 76.9 µM
Results filed as inconclusive are left out. Calls of active or inactive are those of the source. The call rests on the fitted dose curve; in most records, active means well fitted curve in the direction sought with a large enough effect; inconclusive means small, poorly fitted or top-dose-only effect, or another doubt; inactive means no such curve, though single readings can be large or run the other way.
EXPERIMENTAL ENDPOINT: outcome

compound=CCN(CC)S(=O)(=O)c1ccc(NCc2ccccn2)nc1 experimental_endpoint=outcome meas_value=inactive
compound=Cc1ccc(N(O)C(=O)NCCCCNC(=O)N(O)c2ccc(C)cc2)cc1 experimental_endpoint=outcome meas_value=inactive
compound=Cc1ccc(C(=O)NC2CCN(CC(=O)Nc3c(C)cc(C)cc3C)CC2)cc1 experimental_endpoint=outcome meas_value=inactive
compound="COc1ccc(S(=O)(=O)NC(C(=O)NCCc2ccccn2)C(C)C)cc1 (configuration not stated)" experimental_endpoint=outcome meas_value=inactive
compound=COc1cccc(NC(=O)CN2C(=O)CSc3ccc(S(=O)(=O)N4CCC(C)CC4)cc32)c1 experimental_endpoint=outcome meas_value=inactive

Q: Indicate its recorded outcome; the compound in question is CCC(=O)Nc1cc(-c2cc3ccccc3oc2=O)ccc1OC
Ans: inactive

Q: Indicate its recorded outcome; the compound in question is O=C(CSc1nnc(Cc2cc(=O)[nH]c(=O)[nH]2)n1-c1ccc(Cl)cc1)NC1CCCC1
Ans: inactive

Q: Indicate its recorded outcome; the compound in question is COc1ccc(C(c2nnnn2CCc2ccccc2)N2CCN(C3CCCC3)CC2)cc1 (configuration not stated)
Ans: inactive

Q: Indicate its recorded outcome; the compound in question is CCCN(CCC)CCCNC(=O)c1cc2cc3ccc(Cl)cc3nc2o1
Ans: inactive

Q: Indicate its recorded outcome; the compound in question is COc1ccccc1OCCCC(=O)NCc1ccco1
Ans: inactive

Q: Indicate its recorded outcome; the compound in question is CCOC(=O)c1ccc(-c2nnc(-c3ccc(Cl)cc3Cl)o2)cc1
Ans: inactive

Q: Indicate its recorded outcome; the compound in question is COC(=O)c1sccc1NC(=S)OC
Ans: inactive
